Parameter Phagocytosis EC50 (ug/mL), Donor 2: see the listing below.
- Subject Of Test: CD47 on CCRF-CEM cells (human, UniProt Q08722 19-323)
- Sequence (Q08722 19-323): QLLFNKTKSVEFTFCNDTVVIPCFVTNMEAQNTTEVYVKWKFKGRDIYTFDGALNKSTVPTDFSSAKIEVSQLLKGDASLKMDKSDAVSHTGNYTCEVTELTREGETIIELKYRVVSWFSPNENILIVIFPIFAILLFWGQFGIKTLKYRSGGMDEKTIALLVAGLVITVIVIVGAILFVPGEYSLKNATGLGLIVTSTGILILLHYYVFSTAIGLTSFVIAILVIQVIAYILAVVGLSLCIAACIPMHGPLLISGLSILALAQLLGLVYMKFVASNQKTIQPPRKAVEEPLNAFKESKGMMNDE
- Assay Protocol: cell-based or functional assay
Number only, in µg/mL; omit the unit.

// Ab356/Ab1127 (HC Ab356, LC Ab1127) anti-CD47 antibody (antibody, V domains shown, FR and CDR L2 variant of AbParental; The label order is HC/LC although the head says 'LC/HC'; r460 is used) VH: QMQLVQSGAEVKKPGSSVKVSCKASGFNIKDYYLHWVRQAPGKGLEWMGWIDPDQGDTEYAQKFQGRVTITRDRSTSTAYMELRSLRAEDTAVYYCNAAYGSSSYPMDYWGQGTTVTVSS VL: NIQMTQSPSSLSASVGDRVTITCRASQDIHRYLSWFQQKPGKVPKHLIYRESRFVDGVPSRFSGSGSGTEFTLTISSLQPEDFATYYCLQYDEFPYTFGGGTKVEIK : Phagocytosis EC50 (ug/mL), Donor 2 value = 0.96

Quick note, Phagocytosis EC50 (ug/mL), Donor 2 for Ab480/Ab1121 (HC Ab480, LC Ab1121) anti-CD47 antibody (antibody, V domains shown, FR and CDR L2 variant of AbParental; The label order is HC/LC although the head says 'LC/HC'; r442 is used) VH: QMQLVQSGAEVKKPGSSVKVSCKASGFNIKDYYLHWVRQAPGKGLEWMGWIDPDQGDTEYAQKFQGRVTITRDRSTSTAYMELRSLRAEDTAVYYCNAAYGSSSYPMDYWGQGTLVTVSS VL: NIQMTQSPSSLSASVGDRVTITCRASQDIHRYLSWFQQKPGKVPKHLIYRYIRFVDGVPSRFSGSGSGTEFTLTISSLQPEDFATYYCLQYDEFPYTFGGGTKVEIK landed at 1.42

Per the record, Ab356/Ab1121 (HC Ab356, LC Ab1121) anti-CD47 antibody (antibody, V domains shown, FR and CDR L2 variant of AbParental; The label order is HC/LC although the head says 'LC/HC'; the row in running number order (r442) is used) VH: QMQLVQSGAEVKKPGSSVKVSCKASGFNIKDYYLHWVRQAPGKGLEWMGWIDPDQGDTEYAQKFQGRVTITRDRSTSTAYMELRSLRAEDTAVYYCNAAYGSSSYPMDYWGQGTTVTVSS VL: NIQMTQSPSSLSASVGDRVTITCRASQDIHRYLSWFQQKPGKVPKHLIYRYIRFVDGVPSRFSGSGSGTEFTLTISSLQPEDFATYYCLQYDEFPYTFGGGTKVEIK has Phagocytosis EC50 (ug/mL), Donor 2 of 1.29

The binder listed as Ab495/Ab356 (LC Ab495, HC Ab356) anti-CD47 antibody (antibody, V domains shown, Framework variant of AbParental) VH: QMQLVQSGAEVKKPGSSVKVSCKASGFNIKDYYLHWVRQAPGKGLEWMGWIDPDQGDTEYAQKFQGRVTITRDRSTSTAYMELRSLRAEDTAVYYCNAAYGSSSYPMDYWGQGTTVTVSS VL: NIQMTQSPSSLSASVGDRVTITCKASQDIHRYLSWYQQKPGKAPKHLIYRANRLVSGVPSRFSGSGSGTEFTLTISSLQPEDFATYYCLQYDEFPYTFGGGTKVEIK shows Phagocytosis EC50 (ug/mL), Donor 2 equal to 0.92

Value of measured Phagocytosis EC50 (ug/mL), Donor 2 for the entry Ab1119/Ab170 (LC Ab1119, HC Ab170) anti-CD47 antibody (antibody, V domains shown, Variant of AbParental) VH: QMQLVQSGAEVKKPGSSVKVSCKASGFNIKDYYLHWVRQAPGKGLEWMGWIDPDQGDTEYAQKFQGRVTITRDRSTSTAYMELRSLRSEDTAVYYCNAAYGSSSYPMDYWGQGTTVTVSS VL: NIQMTQSPSSLSASVGDRVTITCRASQDIHRYLSWFQQKPGKVPKHLIYRANRLVSGVPSRFSGSGSGTEFTLTISSLQPEDFATYYCLQYDEFPYTFGGGTKVEIK : 0.62

This collection of values is drawn from patent US20190241654A1.
